Each recorded value in this set is attributed to ChEMBL document CHEMBL2331115.

Parameter pEC50: see the listing below.
Test system: HL-60
method: Induction of monocytic cell differentiation in human HL60 cells
pEC50: −log10 of the molar value.

molecule: CCC(CC)(c1ccc(OCC(=O)C(C)(C)C)c(C)c1)c1ccc(OCC(=O)C(C)(C)C)c(C)c1
pEC50: 7.52
//
molecule: CCC(CC)(c1ccc(OCC(O)CO)c(C)c1)c1ccc(OCC(O)C(C)(C)C)c(C)c1 (mixture of isomers)
pEC50: 7.52

----------
tgt: UniProtKB P11473
Sequence (whole entry): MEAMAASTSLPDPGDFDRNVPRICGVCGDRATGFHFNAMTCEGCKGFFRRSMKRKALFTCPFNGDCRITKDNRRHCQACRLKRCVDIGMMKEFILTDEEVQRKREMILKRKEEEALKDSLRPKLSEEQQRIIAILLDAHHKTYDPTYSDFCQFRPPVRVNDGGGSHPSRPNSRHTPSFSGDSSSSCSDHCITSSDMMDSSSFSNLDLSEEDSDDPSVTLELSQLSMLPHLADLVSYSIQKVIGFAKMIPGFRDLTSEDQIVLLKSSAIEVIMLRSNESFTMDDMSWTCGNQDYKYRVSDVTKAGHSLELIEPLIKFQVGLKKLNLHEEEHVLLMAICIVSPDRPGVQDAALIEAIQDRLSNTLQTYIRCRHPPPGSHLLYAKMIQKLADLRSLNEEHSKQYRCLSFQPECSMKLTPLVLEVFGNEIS
method: Agonist activity at CMX-GAL4 tagged human VDR expressed in HEK293 cells assessed as increase in transcriptional activity by luciferase reporter gene assay
Type: cell-based
Parameter PC50: see the listing below.

molecule: CC[Si](CC)(c1ccc(OCC(=O)C(C)(C)C)c(C)c1)c1ccc(OCC(=O)C(C)(C)C)c(C)c1
PC50: > 30 µM
//
molecule: CCC(CC)(c1ccc(OCC(=O)C(C)(C)C)c(C)c1)c1ccc(OCC2CO2)c(C)c1 (racemic)
PC50: 0.68 µM
//
molecule: CC[Si](CC)(c1ccc(OC[C@@H](O)CO)c(C)c1)c1ccc(OC[C@@H](O)C(C)(C)C)c(C)c1
PC50: 2.2 µM
//
molecule: CCC(CC)(c1ccc(OCC(O)CO)c(C)c1)c1ccc(OCC(O)C(C)(C)C)c(C)c1 (mixture of isomers)
PC50: 0.14 µM

----------
tgt: Vitamin D3 receptor (Homo sapiens, UniProt P11473)
method: Agonist activity at VDR (unknown origin) by reporter gene assay
pEC50: −log10 of the molar value.
test readout: pEC50

test smiles: CCC(CC)(c1ccc(OCC(=O)C(C)(C)C)c(C)c1)c1ccc(OCC(=O)C(C)(C)C)c(C)c1
test readout: pEC50
reported result: 7.40

----------
Organism: Homo sapiens
method: Selectivity index, ratio of agonist PC50 for CMX-GAL4 tagged human VDR to antagonist IC50 for human androgen receptor

compound: CC[Si](CC)(c1ccc(OCC(=O)C(C)(C)C)c(C)c1)c1ccc(OC[C@H](O)CO)c(C)c1
result comparator: =
Selectivity Index: 0.93

compound: CC[Si](CC)(c1ccc(OC[C@H](O)CO)c(C)c1)c1ccc(OC[C@@H](O)C(C)(C)C)c(C)c1
result comparator: >
Selectivity Index: 1.4

compound: CC[Si](CC)(c1ccc(OC[C@H](O)CO)c(C)c1)c1ccc(OC[C@H](O)C(C)(C)C)c(C)c1
result comparator: =
Selectivity Index: 0.31

compound: CCC(CC)(c1ccc(OCC(=O)C(C)(C)C)c(C)c1)c1ccc(OCC(=O)C(C)(C)C)c(C)c1
result comparator: <
Selectivity Index: 0.46

compound: CC[Si](CC)(c1ccc(OCC(O)CO)c(C)c1)c1ccc(OCC(O)C(C)(C)C)c(C)c1 (mixture of isomers)
result comparator: =
Selectivity Index: 0.14

compound: CC[Si](CC)(c1ccc(OC[C@@H](O)CO)c(C)c1)c1ccc(OC[C@@H](O)C(C)(C)C)c(C)c1
result comparator: =
Selectivity Index: 0.27

compound: CC[Si](CC)(c1ccc(OCC(=O)C(C)(C)C)c(C)c1)c1ccc(OCC(=O)C(C)(C)C)c(C)c1
result comparator: >
Selectivity Index: 4.8

compound: CC[Si](CC)(c1ccc(OC[C@@H](O)CO)c(C)c1)c1ccc(OC[C@H](O)C(C)(C)C)c(C)c1 (mixture of isomers)
result comparator: =
Selectivity Index: 0.14

compound: CCC(CC)(c1ccc(OCC(=O)C(C)(C)C)c(C)c1)c1ccc(OCC2CO2)c(C)c1 (racemic)
result comparator: <
Selectivity Index: 0.068

compound: CC[Si](CC)(c1ccc(OCC(=O)C(C)(C)C)c(C)c1)c1ccc(OCC2CO2)c(C)c1 (racemic)
result comparator: =
Selectivity Index: 0.48
